The following compounds are listed with their measured TGI values.
# Test system: HT29 colon
# test.name: NCI tumour cell line growth inhibition, 48 h

| compound | TGI |
| --- | --- |
| CSc1ccc2c(cc1=O)[C@@H](NC(C)=O)CCc1cc(O)c(O)c(O)c1-2 | 29.2 µM |
| Cc1cc(-c2ccc(C(=O)O)[nH]2)on1 | > 100 µM |
| COc1cc(NS(C)(=O)=O)ccc1NCc1cnc2ccc3[nH]c(C)ccc3c12 | > 100 µM |
| O=C(Cn1c(=O)ccn(C2OC(CO)C(O)C2F)c1=O)c1ccc(F)cc1 (stereo not given) | > 100 µM |
| CCC/C(=N\NC(=S)N1CCN(c2ccccn2)CC1)c1ccccn1 | > 5.39 µM |
| CCN1CC2=C(N=c3s/c(=C\c4ccc(Cl)cc4)c(=O)n3C2c2ccc(Cl)cc2)/C(=C/c2ccc(Cl)cc2)C1 (stereo not given) | > 100 µM |
| CC(=O)Nc1ccc(/C=C(\NC(=O)c2ccccc2)c2nc3ccc4c(c3[nH]2)C(=O)c2ccccc2C4=O)cc1 | > 100 µM |
| Cc1ccc(NC(c2ccccc2)c2ccc3cccnc3c2O)cc1 (stereo not given) | 13.6 µM |
| CN1CCCN2CCN(C)CCN(CC1)CC2 | > 100 µM |
| Cc1ccc(C)c(NC(=O)C(=O)C2C(=O)C3=C(CC2(C)C)Nc2ccccc2S3)c1 (stereo not given) | > 100 µM |

Hello, the source for this data is PubChem BioAssay (NCI), in case you need it.
